Procedure summary: yeast display, Sf9 membrane polyspecificity reagent, FACS + sequencing; frameworks hold sequencing errors
Measurement name: polyreactivity (PSR sort gate)

QVQLVESGGGLVQAGGSLRLSCAASGRTFNTYAMGWYRQAPGKERELVAAISRTGASTYYADSVKGRFTISRDNAKNTVYLQMNSLKPEDTAVYYCAADANSGDGYYWGQGTQVTVSS	high polyreactivity
QVQLVESGGGLVQAGGSLRLSCAASGFTFGYYAMGWYRQAPGKERELVATITSSGASTYADSVKGRFTISRDNAKNTVYLQMNSLKPEDTAVYYCAADRLPSYWSWYGYDYWGQGTQVTVSS	high polyreactivity
QVQLVESGGGLVQAGGSLRLSCAASGFISSENAMGWYRQAPGKERELVAAISSGGSTNYADSVKGRFTISRDNAKNTVYLQMNSRKPEDTAVYYCAATLPGWYNEDDSWGQGTQVTVSS	low polyreactivity
QVQLVESGGGLVQAGGSLRIICAASGRIFRENAMGWYRQAPGKAREWVAAISSGGSTYYADSVKGRFTISRDNAKNTDYLQMNSLKPEDPAVYYCAADLSWSRVVFGDYDYWGQGTHVTVSS	low polyreactivity

Next up:
[in] Need polyreactivity (PSR sort gate) of QVQLVESGGGLVQAGGSLRLSCAASGFTLYYYMGWYRQAPGKERELVARIRATGGSTYYADSVKGRFTISRDNAKNTVDLQMNSLKPEDTAVYYCAAKGVPRRYRPDMYYWGQGTQVTVSS , thanks.
[out] high polyreactivity

Values compiled from the nanobody polyreactivity screen of Harvey et al. (2022).
